- Experiment Summary: ATG_E_Box_CIS: Attagene CIS-FACTORIAL HepG2 Assay for human Enhancer Box (E-box) (AID 2282936)
- Condition Info: HepG2 E-box cis-reporter transcription, actives raise or lower the signal
- Experimental: ATG_CIS is a cell-based, multiplexed-readout assay that uses HepG2, a human liver cell line, with measurements taken at 24 hours after chemical dosing in a 24-well plate.ATG_E_Box_CIS is one of 52 assay component(s) measured or calculated from the ATG_CIS assay. […] This assay endpoint, ATG_E_Box_CIS, was analyzed with bidirectional fitting relative to DMSO as the negative control and baseline of activity. […]
Calls of active or inactive are those of the source. How the source made its calls: active means hit-call score of the fitted dose curve at least 0.9, where 1 is the maximum; inactive means score below 0.9.
Please reply with one of these outcomes: active, inactive

Task item: Per the records of this test, what outcome belongs to `O=C(O)CS` ?
Reply: inactive

Task item: For `CCC(=O)OC/C=C(\C)CCC=C(C)C` then?
Reply: inactive

Task item: For `CC(CO)(CO)[N+](=O)[O-]` then?
Reply: inactive

Task item: For `CC(C)(O)C(=O)c1ccc(OCCO)cc1` then?
Reply: inactive

Task item: For `[O-]/[N+](=N\O)c1ccccc1` then?
Reply: inactive

Task item: For `CC(=O)CC(=O)N(C)C` then?
Reply: inactive

Task item: For `O=Cc1ccccc1O` then?
Reply: inactive

Task item: For `C=CC(=O)OCC(CO)(COC(=O)C=C)COC(=O)C=C` then?
Reply: active

Task item: For `CC/C(=C(\c1ccccc1)c1ccc(OCCN(C)C)cc1)c1ccccc1` then?
Reply: inactive

Task item: For CC12CCC(C1)C(C)(C)C2O (stereo not drawn) then?
Reply: inactive

Continuing:
Task item: Per the records of this test, what outcome belongs to `O=C(O)c1cccc(Cl)n1` ?
Reply: inactive

Task item: For CC(C)Cc1ccc(C(C)C(=O)O)cc1 (stereo not drawn) then?
Reply: inactive

Task item: For `CC(C)CCOC(=O)CC(C)C` then?
Reply: inactive

Task item: For CCCCC(CC)COCCO (stereo not drawn) then?
Reply: inactive

Task item: For C=CC(O)CCCCC (stereo not drawn) then?
Reply: inactive

Task item: For `COc1ccccc1O` then?
Reply: inactive

Task item: For `O=C(OCc1ccccc1)c1ccccc1O` then?
Reply: inactive

Task item: For `S=c1[nH][nH]c(=S)s1` then?
Reply: inactive

Task item: For `C=CCOC(=O)/C=C\C(=O)OCC=C` then?
Reply: inactive

Task item: For `O=[N+]([O-])c1cc(N(CCO)CCO)ccc1NCCO` then?
Reply: inactive

Task item: For CC(O)CNCC(C)O (stereo not drawn) then?
Reply: inactive

Task item: For `c1ccc(OCCOc2ccccc2)cc1` then?
Reply: inactive

Task item: For `CCCCCCCCCCCCCC(=O)OCC` then?
Reply: inactive

Task item: For `c1coc(CNc2ncnc3nc[nH]c23)c1` then?
Reply: inactive

Task item: For CC(=O)C1C(=O)C=C(C)OC1=O (stereo not drawn) then?
Reply: inactive

Task item: For `C1=COCCC1` then?
Reply: inactive

Task item: For `Cc1ccc(C(C)(C)O)cc1` then?
Reply: inactive

Task item: For `C=C/C(C)=C/C/C=C(\C)CCC=C(C)C` then?
Reply: inactive

Task item: For CCCCOC(=O)C(C)OC(=O)CCC (stereo not drawn) then?
Reply: inactive

Task item: For `Nc1ccn([C@H]2CC[C@@H](CO)O2)c(=O)n1` then?
Reply: inactive

Task item: For `C=CCCCCCCCCC(=O)OCC` then?
Reply: inactive

Task item: For `CC(=O)OC(C)(C)C` then?
Reply: inactive

Task item: For `Cc1ccncc1` then?
Reply: inactive
